MEASUREMENT TARGET: Human immunodeficiency virus type 1 protease (Human immunodeficiency virus 1)
TEST SUMMARY: Inhibition of HIV1 protease at 5 uM
MEASURE: inhibition (%)

Solved entries (count: 4):
COMPOUND | inhibition / %
Cc1c(Cl)cccc1N1CCN(Cc2cn([C@@H](Cc3ccccc3)[C@H](Cc3ccccc3)NC(=O)OC3CCCC3)nn2)CC1 | 86
Cc1ccc(Cl)cc1N1CCN(Cc2cn([C@@H](Cc3ccccc3)[C@H](Cc3ccccc3)NC(=O)OCC3CC3)nn2)CC1 | 69
O=C(N[C@@H](Cc1ccccc1)[C@H](Cc1ccccc1)n1cc(CN2CCN(c3cc(Cl)cc(Cl)c3)CC2)nn1)OC1CCCC1 | 89
Cc1ccc(Cl)cc1N1CCN(Cc2cn([C@@H](Cc3ccccc3)[C@H](Cc3ccccc3)NC(=O)OCC3CCCCC3)nn2)CC1 | 53

A = Cc1cccc(N2CCN(Cc3cn([C@@H](Cc4ccccc4)[C@H](Cc4ccccc4)NC(=O)OC4CCCC4)nn3)CC2C)c1 (some centres not stated)
B = O=C(N[C@@H](Cc1ccccc1)[C@H](Cc1ccccc1)n1cc(CN2CCN(c3ccc(Cl)c(Cl)c3)CC2)nn1)OC1CCCC1
C = Cc1ccc(Cl)cc1N1CCN(Cc2cn([C@@H](Cc3ccccc3)[C@H](Cc3ccccc3)NC(=O)NC3CCCC3)nn2)CC1
Order the records, beginning with the lowest inhibition and ending with the highest. Provide the ranking by listing each label in its place in the requested order. C, A, B
